Let's go through some recorded AC50 values for Melanocortin receptor 4 (Homo sapiens) together.

The value of AC50 measured for the compound C/C=C(/C(=C/C)c1ccc(O)cc1)c1ccc(O)cc1 turned out to be > 10 µM

---

Let's go through some recorded AC50 values for Type-1 angiotensin II receptor (Homo sapiens, UniProt P30556) together.

COMPOUND: O=C1Cc2cc(CCN3CCN(c4nsc5ccccc45)CC3)c(Cl)cc2N1 [ZIPRASIDONE]
TARGET_SYSTEM: Type-1 angiotensin II receptor (Homo sapiens, UniProt P30556); note: assay procedure not described here
Sequence (P30556 whole entry): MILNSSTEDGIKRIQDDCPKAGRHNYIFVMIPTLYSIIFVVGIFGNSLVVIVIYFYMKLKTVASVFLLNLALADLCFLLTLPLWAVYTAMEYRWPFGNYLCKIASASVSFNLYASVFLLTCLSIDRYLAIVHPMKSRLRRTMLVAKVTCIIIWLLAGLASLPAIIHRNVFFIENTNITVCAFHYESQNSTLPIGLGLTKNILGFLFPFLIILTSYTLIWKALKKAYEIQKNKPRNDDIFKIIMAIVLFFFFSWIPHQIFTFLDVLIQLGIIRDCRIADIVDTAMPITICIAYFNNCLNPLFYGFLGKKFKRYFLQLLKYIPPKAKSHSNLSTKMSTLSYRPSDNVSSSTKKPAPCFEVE
REPORTED_ENDPOINT: AC50
MEAS_VALUE: > 30 µM

Item Cc1ccc(C)c(OCCCC(C)(C)C(=O)O)c1 [GEMFIBROZIL] ; assay system Type-1 angiotensin II receptor (Homo sapiens, UniProt P30556); AC50 reported as > 30 µM

Item O=C1c2ccccc2C(=O)C1c1ccccc1 [PHENINDIONE] ; assay system Type-1 angiotensin II receptor (Homo sapiens, UniProt P30556); AC50 reported as > 10 µM

Item CNC[C@H](O)c1ccc(O)c(O)c1 [EPINEPHRINE] ; assay system Type-1 angiotensin II receptor (Homo sapiens, UniProt P30556); AC50 reported as > 30 µM

Item COc1ccccc1OC1(C)OC(=O)c2ccccc2O1 (centres undefined) [GUAIMESAL] ; assay system Type-1 angiotensin II receptor (Homo sapiens, UniProt P30556); AC50 reported as > 30 µM

Item CC(=O)c1ccc(S(=O)(=O)NC(=O)NC2CCCCC2)cc1 [ACETOHEXAMIDE] ; assay system Type-1 angiotensin II receptor (Homo sapiens, UniProt P30556); AC50 reported as > 10 µM

Item CCN1CC(CCN2CCOCC2)C(c2ccccc2)(c2ccccc2)C1=O (centres undefined) [DOXAPRAM] ; assay system Type-1 angiotensin II receptor (Homo sapiens, UniProt P30556); AC50 reported as > 30 µM

Item CCOC(=O)[C@@H](N)Cc1ccc(-c2cc(O[C@H](c3ccc(Cl)cc3-n3ccc(C)n3)C(F)(F)F)nc(N)n2)cc1 [TELOTRISTAT ETHYL] ; assay system Type-1 angiotensin II receptor (Homo sapiens, UniProt P30556); AC50 reported as 11 µM

Item CN(Cc1cnc2nc(N)nc(N)c2n1)c1ccc(C(=O)N[C@@H](CCC(=O)O)C(=O)O)cc1 [METHOTREXATE] ; assay system Type-1 angiotensin II receptor (Homo sapiens, UniProt P30556); AC50 reported as > 30 µM

---

Target chain: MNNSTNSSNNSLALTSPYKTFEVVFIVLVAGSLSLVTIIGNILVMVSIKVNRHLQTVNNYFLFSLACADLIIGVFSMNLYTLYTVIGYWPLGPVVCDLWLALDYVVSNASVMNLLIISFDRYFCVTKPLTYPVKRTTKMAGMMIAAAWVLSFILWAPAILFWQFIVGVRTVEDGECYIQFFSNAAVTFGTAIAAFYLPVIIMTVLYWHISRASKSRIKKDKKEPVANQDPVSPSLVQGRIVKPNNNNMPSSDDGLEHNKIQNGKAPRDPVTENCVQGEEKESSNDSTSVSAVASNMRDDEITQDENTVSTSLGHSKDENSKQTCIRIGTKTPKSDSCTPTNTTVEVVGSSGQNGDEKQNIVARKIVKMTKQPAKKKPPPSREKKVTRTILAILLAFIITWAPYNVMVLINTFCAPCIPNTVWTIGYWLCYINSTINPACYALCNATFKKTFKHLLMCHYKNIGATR
# Lookup of reported AC50 keyed by entry

Worked examples, 5 compounds total:
COMPOUND: C[Se]CC[C@H](N)C(=O)O
AC50: > 30 µM
//
COMPOUND: Nc1c(CC(=O)O)cccc1C(=O)c1ccc(Br)cc1
AC50: > 30 µM
//
COMPOUND: COc1cc(C)c2c(Oc3cccc(C(F)(F)F)c3)c(OC)cc(NC(C)CCCN)c2n1 (stereo unspecified)
AC50: > 30 µM
//
COMPOUND: CCC1=C[C@@H]2CN(C1)Cc1c([nH]c3ccccc13)[C@@](C(=O)OC)(c1cc3c(cc1OC)N(C)[C@H]1[C@@](O)(C(=O)OC)[C@H](OC(C)=O)[C@]4(CC)C=CCN5CC[C@]31[C@@H]54)C2
AC50: > 30 µM
//
COMPOUND: COc1c2occc2c(OC)c2c(=O)cc(C)oc12
AC50: > 30 µM

The value of AC50 measured for the compound CC(=O)O[C@H]1Cc2ccccc2N(C(N)=O)c2ccccc21 [ESLICARBAZEPINE ACETATE] turned out to be > 30 µM

The value of AC50 measured for the compound O=C(CCC/C=C\C[C@@H]1[C@@H](CC[C@@H](O)CCc2ccccc2)[C@H](O)C[C@@H]1O)OCCCCO[N+](=O)[O-] turned out to be > 30 µM

The value of AC50 measured for the compound CCCSc1nc(N[C@@H]2C[C@H]2c2ccc(F)c(F)c2)c2nnn([C@@H]3C[C@H](OCCO)[C@@H](O)[C@H]3O)c2n1 turned out to be > 30 µM

The value of AC50 measured for the compound COc1cc(C(C)=O)ccc1OCCCN1CCC(c2noc3cc(F)ccc23)CC1 turned out to be 2.18 µM

The value of AC50 measured for the compound CN1CCCN(C(c2ccccc2)c2ccc(Cl)cc2)CC1 (stereo unspecified) turned out to be 0.149 µM
